SYSTEM: CHK2 (Homo sapiens, UniProt O96017)
Construct: made in house
Sequence (O96017 whole entry): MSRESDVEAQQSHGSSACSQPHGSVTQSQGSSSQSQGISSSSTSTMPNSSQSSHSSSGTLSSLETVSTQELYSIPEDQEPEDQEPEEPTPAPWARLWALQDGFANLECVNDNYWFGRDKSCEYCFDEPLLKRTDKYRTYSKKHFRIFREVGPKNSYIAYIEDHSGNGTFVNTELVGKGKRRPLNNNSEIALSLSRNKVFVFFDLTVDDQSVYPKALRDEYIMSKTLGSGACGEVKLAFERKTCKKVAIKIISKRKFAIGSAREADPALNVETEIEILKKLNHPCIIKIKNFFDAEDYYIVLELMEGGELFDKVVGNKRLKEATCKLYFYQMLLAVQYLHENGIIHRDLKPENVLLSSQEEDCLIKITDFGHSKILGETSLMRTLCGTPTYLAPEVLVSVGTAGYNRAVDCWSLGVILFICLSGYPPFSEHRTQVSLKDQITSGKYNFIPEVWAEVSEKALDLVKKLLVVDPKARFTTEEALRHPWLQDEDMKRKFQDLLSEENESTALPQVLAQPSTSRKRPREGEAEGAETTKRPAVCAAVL
ASSAY NAME: CHK2 kinase activity assay (DELFIA, phosphorylation of a CDC25C peptide)
Type: biochemical
TEST PARAMETERS: following further studies; ATP 30 μM, CHK2 1 nM; read-out: IC50, inhibition of CHK2 kinase activity in vitro
pIC50: −log10 of the molar value.
MEASUREMENT KIND: pIC50

{"COMPOUND": "O=C(Nc1ccccc1)[C@H]1C[C@H](Nc2nc(-c3ccccc3O)nc3ccccc23)CN1", "OBSERVED MEASUREMENT": "5.52 to 6.52"}
{"COMPOUND": "CN(c1nc(-c2cc(F)ccc2O)nc2ccccc12)[C@H]1CCNC1", "OBSERVED MEASUREMENT": "≥ 6.52"}
{"COMPOUND": "COc1ccc2c(N[C@H]3CCNC3)nc(-c3cc(F)ccc3O)nc2c1", "OBSERVED MEASUREMENT": "≥ 6.52"}
{"COMPOUND": "Nc1nnc(-c2ccc(O)c(-c3nc(N[C@H]4CCNC4)c4ccccc4n3)c2)s1", "OBSERVED MEASUREMENT": "≥ 6.52"}
{"COMPOUND": "OCC#Cc1ccc2nc(-c3ccccc3O)nc(N[C@H]3CCNC3)c2c1", "OBSERVED MEASUREMENT": "≥ 6.52"}
{"COMPOUND": "Oc1ccc(-c2ccsc2)cc1-c1nc(N[C@H]2CCNC2)c2ccccc2n1", "OBSERVED MEASUREMENT": "5.52 to 6.52"}
{"COMPOUND": "Oc1ccc(F)cc1-c1nc(NC2CCCCNC2)c2ccccc2n1 (centres unmarked)", "OBSERVED MEASUREMENT": "≥ 6.52"}
{"COMPOUND": "O=C([C@H]1C[C@H](Nc2nc(-c3ccccc3O)nc3ccccc23)CN1)N1CCC1", "OBSERVED MEASUREMENT": "5.52 to 6.52"}
